Assay: HepG2 cell cytotoxicity, dose response, cytotoxicity control for Shn3 inhibitor project, CellTiter-Glo, cherry-picked (AID 624134)
Format: functional, cell-based
Calls of active or inactive are those of the source.
Labels: true = active, false = inactive

[
  {
    "CHEMICAL_STRING": "O=C(C(=Cc1ccccc1)CN1CCCCC1)c1ccccc1",
    "LABEL_CLASS": "true"
  },
  {
    "CHEMICAL_STRING": "COC(=O)C1=C(c2ccc(OCc3ccccc3)cc2)C[C@@H]2CC[C@H]1N2C(=O)NCc1ccc(C(C)(C)C)cc1",
    "LABEL_CLASS": "false"
  },
  {
    "CHEMICAL_STRING": "Cc1ccc(-c2csc(N3CCC(NS(=O)(=O)c4ccc5c(c4)OCCO5)CC3)n2)cc1",
    "LABEL_CLASS": "false"
  },
  {
    "CHEMICAL_STRING": "Cc1ccc(C)c(S(=O)(=O)N2CCN(C(=O)C3CCN(c4ncnc5sc(C)c(C)c45)CC3)CC2)c1",
    "LABEL_CLASS": "false"
  }
]

---

For Estrogen receptor (Homo sapiens), measured IC50 is reported for the entries below.
Calls of active or inactive are those of the source.

[
  {
    "COMPOUND": "CCOc1ccc(/C=c2\\sc3nc(-c4ccco4)nn3c2=O)cc1OCC",
    "IC50": "> 50 µM (not active)"
  },
  {
    "COMPOUND": "COc1cc2cc(C(c3nnnn3C3CCCC3)N3CCc4ccccc43)c(=O)[nH]c2cc1OC (stereo not drawn)",
    "IC50": "21.9 µM (active)"
  },
  {
    "COMPOUND": "Fc1ccc(NCc2cccnc2)cc1F",
    "IC50": "> 50 µM (not active)"
  },
  {
    "COMPOUND": "COC(=O)C1=C(O)/C(=C\\c2ccc(CNC(=O)C(=O)Nc3ccc(C)c(C)c3)o2)N=C1C",
    "IC50": "19.6 µM (active)"
  },
  {
    "COMPOUND": "COc1ccc2c(c1)c(=O)oc1cc(OCC(=O)NC3CCCCC3)ccc12",
    "IC50": "17.9 µM (active)"
  },
  {
    "COMPOUND": "COc1cc(/C=c2\\sc3nc(-c4ccncc4)nn3c2=O)ccc1OC(C)=O",
    "IC50": "31.7 µM (not active)"
  },
  {
    "COMPOUND": "Cc1ccc(-n2c(=O)c(C#N)cc3c(=O)n4cccc(C)c4nc32)cc1",
    "IC50": "30.9 µM (not active)"
  },
  {
    "COMPOUND": "CSCCC1NC(=O)NC1=O (stereo not drawn)",
    "IC50": "> 50 µM (not active)"
  }
]

---

Target: Endoribonuclease toxin MazF (Escherichia coli K-12, UniProt P0AE70)
Sequence (P0AE70 whole entry): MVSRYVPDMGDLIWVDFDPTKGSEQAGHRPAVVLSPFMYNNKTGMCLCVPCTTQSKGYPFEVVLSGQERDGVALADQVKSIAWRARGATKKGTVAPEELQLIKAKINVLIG
Test: MazF toxin RNase activators, dose response, biochemical, fluorescence, single-stranded RNA substrate, uHTS hits (AID 588481)
Type: functional
Activity calls are given as the source filed them.
Recorded EC50 values for a group of compounds are listed next.

[
  {
    "CHEMICAL_STRING": "COc1ccc(CNC(=O)c2cc3c(=O)n4ccccc4nc3n(Cc3cccnc3)c2=N)cc1",
    "EC50": "55.4 µM (inactive)"
  },
  {
    "CHEMICAL_STRING": "COCCCn1c(=O)/c(=C/c2ccccc2OC(F)F)s/c1=C(\\C#N)C(=O)NCCOC",
    "EC50": "> 99 µM (inactive)"
  },
  {
    "CHEMICAL_STRING": "O=C1/C(=C/Nc2ccc(O)cc2)c2ccccc2C(=O)N1Cc1ccccc1",
    "EC50": "> 99 µM (inactive)"
  },
  {
    "CHEMICAL_STRING": "Cc1ccc(OCC(=O)Nc2ccc(Cl)cc2)c(-n2nc3ccccc3n2)c1",
    "EC50": "> 99 µM (inactive)"
  },
  {
    "CHEMICAL_STRING": "CCn1c(C)cc(C=C2C(=O)c3ccccc3C2=O)c1C",
    "EC50": "44.5 µM (inactive)"
  },
  {
    "CHEMICAL_STRING": "O=C1C([N-]S(=O)(=O)c2cccs2)=C([n+]2cccc(Cc3ccccc3)c2)C(=O)c2ccccc21",
    "EC50": "> 99 µM (inactive)"
  },
  {
    "CHEMICAL_STRING": "CCN(CCNc1ccc([N+](=O)[O-])c2cccnc12)S(=O)(=O)c1ccccc1",
    "EC50": "> 99 µM (inactive)"
  }
]

---

Target: UniProt P30556
Sequence (P30556 whole entry): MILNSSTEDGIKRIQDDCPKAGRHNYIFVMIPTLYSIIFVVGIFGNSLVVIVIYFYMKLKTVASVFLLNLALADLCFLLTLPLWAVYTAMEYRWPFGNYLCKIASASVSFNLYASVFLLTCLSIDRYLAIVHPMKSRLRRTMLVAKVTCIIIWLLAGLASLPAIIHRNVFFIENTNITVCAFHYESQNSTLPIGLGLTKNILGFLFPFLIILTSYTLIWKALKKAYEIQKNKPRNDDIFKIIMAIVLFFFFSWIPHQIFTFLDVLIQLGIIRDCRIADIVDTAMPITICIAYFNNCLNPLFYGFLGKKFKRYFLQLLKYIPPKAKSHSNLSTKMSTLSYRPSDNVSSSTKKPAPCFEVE
Experiment: AT1 receptor antagonists, dose response, selectivity assay for APJ receptor antagonist project, cell-based, uHTS hits (AID 463214);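 note: antagonist potency against angiotensin II stimulated AT1 response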
Format: functional
Calls of active or inactive are those of the source.
METRIC: IC50

[
  {
    "MOLECULE": "O=C(NNc1ccc(Cl)cc1)c1sccc1Cl",
    "VAL": "12.4 µM (active)"
  },
  {
    "MOLECULE": "CCn1nc(C)cc1-c1nnc(Sc2ncc([N+](=O)[O-])s2)n1C",
    "VAL": "5.36 µM (active)"
  },
  {
    "MOLECULE": "Cc1ccc2c(c1)nnn2C1CCN(CC(=O)NCCc2nc3ccccc3[nH]2)CC1",
    "VAL": "> 40 µM (not active)"
  },
  {
    "MOLECULE": "O=[N+]([O-])c1cccc(/C=N/NS(=O)(=O)c2ccccc2)c1",
    "VAL": "24.3 µM (not active)"
  },
  {
    "MOLECULE": "Cc1ccc(C(C[N+](=O)[O-])Sc2ccc(N)cc2)cc1 (stereo unspecified)",
    "VAL": "16.9 µM (active)"
  },
  {
    "MOLECULE": "COCc1cc(O)nc(Nc2nc3ccc(C)cc3o2)n1",
    "VAL": "6.83 µM (active)"
  }
]

---

Test: cytotoxicity toward NIH3T3 fibroblasts, dose response, counter-screen, cell-based, ATP luminescence, mouse fibroblasts (AID 2010);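 note: cells exposed to compound for about 90 hours before reading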
Type: functional
Calls of active or inactive are those of the source.
Reported EC50 by item:

[
  {
    "COMPOUND": "COCCCn1c(SCc2cccc(C(F)(F)F)c2)nc2cc(OC)c(OC)cc2c1=N",
    "EC50": "> 60 µM (not active)"
  },
  {
    "COMPOUND": "CCOc1ccc(S(=O)(=O)NC(C)(C)C)cc1-c1nc(O)c2c(n1)c(C(C)(C)C)nn2C",
    "EC50": "8.45 µM (active)"
  },
  {
    "COMPOUND": "CCO/C(O)=C1\\C(C)=Nc2sc(C(=O)c3ccc(Br)cc3)c(N)c2C1c1ccc(C(=O)OC)cc1 (centres undefined)",
    "EC50": "15.8 µM (active)"
  },
  {
    "COMPOUND": "Cc1ccsc1C(=O)C1CCCN(Cc2ccc(-n3cccn3)cc2)C1 (centres undefined)",
    "EC50": "> 60 µM (inconclusive)"
  }
]

---

Biological target: Eukaryotic translation initiation factor 4E (Mus musculus)
Sequence (P63073 whole entry): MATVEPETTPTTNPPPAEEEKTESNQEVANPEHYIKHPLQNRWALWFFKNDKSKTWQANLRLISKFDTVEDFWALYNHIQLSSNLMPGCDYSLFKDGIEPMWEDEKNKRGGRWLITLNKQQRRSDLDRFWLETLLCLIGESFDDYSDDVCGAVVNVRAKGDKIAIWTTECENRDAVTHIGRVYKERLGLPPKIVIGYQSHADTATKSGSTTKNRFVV
Assay: eIF4E–eIF4G protein interaction inhibitors, dose response, biochemical, TR-FRET (AID 855);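 note: potency for disrupting eIF4E binding to eIF4GI seen as loss of FRET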
Assay type: functional
Calls of active or inactive are those of the source.

[
  {
    "COMPOUND": "O=C(CSc1ncn(-c2ccccc2)n1)N1CCc2ccccc21",
    "IC50": "> 64 µM (inactive)"
  },
  {
    "COMPOUND": "O=C(NC1CCC(O)CC1)c1cc(-c2ccco2)nc2ccccc12 (stereo not given)",
    "IC50": "50 µM (inactive)"
  },
  {
    "COMPOUND": "CCc1nnc(NC(=O)Cn2nc(-c3ccccc3OC)ccc2=O)s1",
    "IC50": "> 64 µM (inactive)"
  },
  {
    "COMPOUND": "COCC(=O)Oc1c(Sc2ccccc2[N+](=O)[O-])c(C)nn1C(C)(C)C",
    "IC50": "50 µM (inactive)"
  },
  {
    "COMPOUND": "COc1cc(C(=O)NNC(=O)C2CC=CCC2C(=O)O)cc(OC)c1OC (stereo not given)",
    "IC50": "> 64 µM (inactive)"
  }
]

---

Parameter IC50: see the listing below.
Molecular target: Sentrin-specific protease 7 (Homo sapiens);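 note: Luminescence-based dose-response confirmation of ultra-high-throughput screening hits, measuring inhibition of SENP7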
Sequence (Q9BQF6 whole entry): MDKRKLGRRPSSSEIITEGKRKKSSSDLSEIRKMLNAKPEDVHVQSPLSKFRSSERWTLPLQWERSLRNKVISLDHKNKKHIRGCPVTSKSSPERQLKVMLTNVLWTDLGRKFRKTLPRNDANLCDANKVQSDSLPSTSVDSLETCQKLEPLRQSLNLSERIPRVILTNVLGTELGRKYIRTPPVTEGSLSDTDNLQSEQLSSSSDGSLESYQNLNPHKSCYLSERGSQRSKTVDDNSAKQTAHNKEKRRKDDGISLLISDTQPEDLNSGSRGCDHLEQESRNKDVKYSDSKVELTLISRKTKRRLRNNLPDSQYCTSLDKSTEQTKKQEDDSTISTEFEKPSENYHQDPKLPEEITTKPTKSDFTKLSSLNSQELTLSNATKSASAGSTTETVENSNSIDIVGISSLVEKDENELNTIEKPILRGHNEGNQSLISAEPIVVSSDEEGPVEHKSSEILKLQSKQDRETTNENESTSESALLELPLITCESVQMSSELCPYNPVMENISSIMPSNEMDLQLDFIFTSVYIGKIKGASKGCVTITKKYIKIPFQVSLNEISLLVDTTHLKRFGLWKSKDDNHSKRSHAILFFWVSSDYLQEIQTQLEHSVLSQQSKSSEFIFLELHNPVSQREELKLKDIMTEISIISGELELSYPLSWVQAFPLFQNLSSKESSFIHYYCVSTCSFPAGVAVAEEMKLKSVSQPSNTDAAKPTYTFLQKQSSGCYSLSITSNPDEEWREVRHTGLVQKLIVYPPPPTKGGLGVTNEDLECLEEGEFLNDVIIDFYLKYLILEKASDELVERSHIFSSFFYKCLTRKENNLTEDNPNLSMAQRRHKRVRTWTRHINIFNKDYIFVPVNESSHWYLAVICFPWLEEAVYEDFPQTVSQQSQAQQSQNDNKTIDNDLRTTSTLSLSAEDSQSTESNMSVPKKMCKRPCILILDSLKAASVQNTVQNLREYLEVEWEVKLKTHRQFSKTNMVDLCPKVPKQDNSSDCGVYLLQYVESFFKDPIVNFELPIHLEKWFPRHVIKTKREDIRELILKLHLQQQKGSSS
Assay type: functional
Calls of active or inactive are those of the source.
METRIC: IC50

[
  {
    "COMPOUND": "Oc1ccc(/N=C/c2ccc(OCc3ccccc3)cc2)cc1",
    "TARGET_ENTITY": "Sentrin-specific protease 7 (Homo sapiens)",
    "VAL": "14.6 µM (active)"
  },
  {
    "COMPOUND": "O=C1OC(Nc2cc(Br)cc3cccnc23)c2ccccc21 (configuration not stated)",
    "TARGET_ENTITY": "Sentrin-specific protease 7 (Homo sapiens)",
    "VAL": "1.79 µM (active)"
  },
  {
    "COMPOUND": "O=C(c1ccc(F)cc1)n1c(=S)nc2ccccn21",
    "TARGET_ENTITY": "Sentrin-specific protease 7 (Homo sapiens)",
    "VAL": "18.1 µM (active)"
  },
  {
    "COMPOUND": "O=C(NNc1cc(N2CCOCC2)nc(N2CCOCC2)n1)c1ccc([N+](=O)[O-])cc1",
    "TARGET_ENTITY": "Sentrin-specific protease 7 (Homo sapiens)",
    "VAL": "6.14 µM (active)"
  },
  {
    "COMPOUND": "Nc1c(N2CCCC2)cc(Cl)c2nonc12",
    "TARGET_ENTITY": "Sentrin-specific protease 7 (Homo sapiens)",
    "VAL": "4.09 µM (active)"
  },
  {
    "COMPOUND": "CCCOc1ccc(-c2nnc(-c3ccco3)o2)cc1",
    "TARGET_ENTITY": "Sentrin-specific protease 7 (Homo sapiens)",
    "VAL": "11.6 µM (active)"
  },
  {
    "COMPOUND": "CCOC(=O)c1sc(NC(=O)c2ccc3nc[nH]c3c2)nc1C",
    "TARGET_ENTITY": "Sentrin-specific protease 7 (Homo sapiens)",
    "VAL": "2.47 µM (active)"
  }
]
